target: prokineticin receptor(s) of guinea pig ileal smooth muscle (ileal membrane preparation / ileum longitudinal muscle) (guinea pig); assay: displacement of 125I-prokineticin 1 (20 pM) from guinea pig ileal membranes by unlabeled prokineticin 2, low-affinity site
pKi: −log10 of the molar value.
measurement kind: pKi

binder="recombinant refolded human prokineticin 2 with C-terminal 6xHis-tag (ligand) AVITGACDKDSQCGGGMCCAVSIWVKSIRICTPMGKLGDSCHPLTRKVPFFGRRMHHTCPCLPGLACLRTSFNRFICLAQKHHHHHH" measurement_kind=pKi experimental_value=8.91
